Data origin: patent US20110135636A1

# ASSAY_TARGET: T1, recombinant human EGFR extracellular domain with 6xHis (human, UniProt P00533 25-645)
# T1 construct: In-house produced; also called 6xHis EGFR ECD; soluble human EGFR ECD; not shown: 6xHis tag
# ASSAY_NAME: SPR competition, competitor 1344
# % inhibition per record follows
# value in %; strip the unit string

1) antibody 1347 (antibody, human IgG1, kappa, V domains shown, Chimeric IgG1 kappa) VH: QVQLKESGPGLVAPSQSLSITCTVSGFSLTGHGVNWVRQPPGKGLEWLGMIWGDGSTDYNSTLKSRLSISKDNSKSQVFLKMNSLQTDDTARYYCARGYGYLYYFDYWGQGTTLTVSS VL: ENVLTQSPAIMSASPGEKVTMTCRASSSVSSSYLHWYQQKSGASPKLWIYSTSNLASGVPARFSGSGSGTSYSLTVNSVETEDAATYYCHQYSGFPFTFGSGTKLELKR: 38

Consider the binder antibody 992 (antibody, human IgG1, kappa, V domains shown, Chimeric mouse/human IgG1 kappa; the VL entry includes the human kappa constant region) VH: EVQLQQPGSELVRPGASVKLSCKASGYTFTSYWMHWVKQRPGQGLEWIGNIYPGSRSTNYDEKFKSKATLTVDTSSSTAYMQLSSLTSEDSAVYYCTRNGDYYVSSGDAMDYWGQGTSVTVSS VL: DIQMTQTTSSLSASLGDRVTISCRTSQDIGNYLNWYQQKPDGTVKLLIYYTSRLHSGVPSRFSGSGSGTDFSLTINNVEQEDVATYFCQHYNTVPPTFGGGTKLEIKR and give its measured % inhibition.
9

And the next one, antibody 1284 (antibody, human IgG1, kappa, V domains shown, Chimeric IgG1 kappa) VH: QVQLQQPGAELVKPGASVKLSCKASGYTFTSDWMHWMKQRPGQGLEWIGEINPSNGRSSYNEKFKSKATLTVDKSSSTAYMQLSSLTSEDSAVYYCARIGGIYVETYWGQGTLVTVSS VL: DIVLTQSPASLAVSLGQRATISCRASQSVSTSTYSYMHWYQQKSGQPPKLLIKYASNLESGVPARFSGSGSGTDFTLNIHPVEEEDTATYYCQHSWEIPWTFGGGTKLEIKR ?
73

And the next one, antibody 1257 (antibody, human IgG1, kappa, V domains shown, Chimeric IgG1 kappa) VH: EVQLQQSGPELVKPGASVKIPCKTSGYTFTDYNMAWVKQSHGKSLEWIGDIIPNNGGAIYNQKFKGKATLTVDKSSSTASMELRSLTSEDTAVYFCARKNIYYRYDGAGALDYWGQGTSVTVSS VL: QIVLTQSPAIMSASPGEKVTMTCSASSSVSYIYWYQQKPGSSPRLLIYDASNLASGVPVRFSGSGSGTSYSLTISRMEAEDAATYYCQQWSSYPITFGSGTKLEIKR ?
80

And the next one, antibody 1344 (antibody, human IgG1, kappa, V domains shown, Chimeric IgG1 kappa) VH: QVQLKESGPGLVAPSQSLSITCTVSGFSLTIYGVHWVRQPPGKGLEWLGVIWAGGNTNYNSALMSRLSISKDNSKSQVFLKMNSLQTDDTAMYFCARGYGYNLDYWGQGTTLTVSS VL: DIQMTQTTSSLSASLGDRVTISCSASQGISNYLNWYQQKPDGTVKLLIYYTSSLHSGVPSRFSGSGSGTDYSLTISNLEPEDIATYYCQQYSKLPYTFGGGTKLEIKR ?
83

And the next one, antibody 1254 (antibody, human IgG1, kappa, V domains shown, Chimeric IgG1 kappa; also called mAb 1254) VH: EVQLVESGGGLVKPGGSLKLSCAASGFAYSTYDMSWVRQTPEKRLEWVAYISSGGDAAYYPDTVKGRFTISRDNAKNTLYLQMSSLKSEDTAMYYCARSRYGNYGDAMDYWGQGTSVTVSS VL: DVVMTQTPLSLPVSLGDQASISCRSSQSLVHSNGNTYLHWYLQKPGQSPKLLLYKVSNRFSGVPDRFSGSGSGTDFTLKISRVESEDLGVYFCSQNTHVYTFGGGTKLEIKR ?
4

And the next one, antibody 1308 (antibody, human IgG1, kappa, V domains shown, Chimeric IgG1 kappa) VH: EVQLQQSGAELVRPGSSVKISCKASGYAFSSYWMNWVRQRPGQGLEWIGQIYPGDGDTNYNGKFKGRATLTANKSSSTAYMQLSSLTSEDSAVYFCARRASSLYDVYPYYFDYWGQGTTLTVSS VL: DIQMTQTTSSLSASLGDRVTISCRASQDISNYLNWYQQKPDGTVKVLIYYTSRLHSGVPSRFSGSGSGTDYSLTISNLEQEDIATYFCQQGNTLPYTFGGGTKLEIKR ?
67

And the next one, antibody 1030 (antibody, human IgG1, kappa, V domains shown, Chimeric IgG1 kappa) VH: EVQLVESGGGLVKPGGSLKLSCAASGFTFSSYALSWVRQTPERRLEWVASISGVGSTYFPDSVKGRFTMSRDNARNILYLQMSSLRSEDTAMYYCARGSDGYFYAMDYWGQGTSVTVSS VL: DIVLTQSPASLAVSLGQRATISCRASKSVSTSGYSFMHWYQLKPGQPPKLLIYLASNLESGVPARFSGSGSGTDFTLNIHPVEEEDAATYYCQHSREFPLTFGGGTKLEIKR ?
24

And the next one, antibody 1320 (antibody, human IgG1, kappa, V domains shown, Chimeric IgG1 kappa) VH: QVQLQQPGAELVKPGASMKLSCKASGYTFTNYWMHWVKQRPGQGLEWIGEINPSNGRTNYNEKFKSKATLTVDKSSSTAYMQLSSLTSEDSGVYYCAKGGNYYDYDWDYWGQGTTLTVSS VL: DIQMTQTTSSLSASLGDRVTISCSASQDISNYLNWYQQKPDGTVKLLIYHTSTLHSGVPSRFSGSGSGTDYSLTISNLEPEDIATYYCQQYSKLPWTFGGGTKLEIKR ?
2

And the next one, antibody 1260 (antibody, human IgG1, kappa, V domains shown, Chimeric IgG1 kappa) VH: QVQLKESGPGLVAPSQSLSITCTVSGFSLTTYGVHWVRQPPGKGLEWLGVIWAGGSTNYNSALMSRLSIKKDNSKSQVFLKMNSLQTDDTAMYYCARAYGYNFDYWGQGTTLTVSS VL: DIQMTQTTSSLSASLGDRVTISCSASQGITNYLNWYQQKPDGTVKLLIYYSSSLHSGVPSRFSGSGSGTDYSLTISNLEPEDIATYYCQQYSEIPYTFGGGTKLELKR ?
83
